target: His6-TEV-PPARγ-(234-505) (Homo sapiens, UniProt P37231); construct: The His6-TEV-PPARγ-(234-505) protein for assay was expressed and purified; TEV cleavage site (N); made in house; experiment: TR-FRET Assay to Measure Co-R Peptide Recruitment to PPARγ; type: biochemical; conditions: Co-R peptide (SMRT-ID2) recruitment; top final concentration 20 μM; read-out: TR-FRET i-Ag; AC50
Sequence (P37231 234-505): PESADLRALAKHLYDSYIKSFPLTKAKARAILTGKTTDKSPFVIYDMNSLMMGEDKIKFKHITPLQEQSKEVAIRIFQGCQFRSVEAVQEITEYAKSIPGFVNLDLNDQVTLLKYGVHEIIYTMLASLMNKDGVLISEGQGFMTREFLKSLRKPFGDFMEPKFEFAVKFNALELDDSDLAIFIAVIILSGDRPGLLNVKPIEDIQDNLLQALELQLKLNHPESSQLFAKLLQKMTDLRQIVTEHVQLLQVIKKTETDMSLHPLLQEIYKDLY
Reported AC50 values are given for each entry in this list.
READOUT TYPE: AC50

[
  {
    "COMPOUND": "COc1cc(-c2cc(C(=O)N3[C@@H]4CC[C@H]3C[C@H](C(=O)N[C@@H]3CCN(CC5(C(F)(F)F)CC5)C3)C4)n[nH]2)c(F)cn1",
    "RESULT": "14.8 nM"
  },
  {
    "COMPOUND": "COc1cc(-c2cc(C(=O)N3CC[C@H](C(=O)NCc4ncc(N5CC(C#N)C5)cc4Cl)CC34CC4)n[nH]2)c(F)cn1",
    "RESULT": "9.2 nM"
  },
  {
    "COMPOUND": "COc1cc(-c2cc(C(=O)N3CCC(C(=O)NC4CCC(O)(C(F)(F)F)C(O)C4)CC34CC4)n[nH]2)c(F)cn1 (mixture of isomers) [Example 474-A]",
    "RESULT": "336 nM"
  },
  {
    "COMPOUND": "COc1cc(-c2cc(C(=O)N3CC[C@H](C(=O)NCc4ncc(C(C)(C)O)cc4Cl)CC34CC4)n[nH]2)c(F)cn1",
    "RESULT": "13.1 nM"
  },
  {
    "COMPOUND": "COc1cc(-c2cc(C(=O)N3CC[C@H](C(=O)NC(C)c4cn5c(n4)COCC5)CC34CC4)n[nH]2)c(F)cn1 (single isomer, unassigned) [Example 415-B]",
    "RESULT": "283 nM"
  },
  {
    "COMPOUND": "COc1cc(-c2cc(C(=O)N3CCC(C(=O)NC4CCOc5ccc(F)cc54)CC3)n[nH]2)c(Cl)cn1 (racemic)",
    "RESULT": "212 nM"
  },
  {
    "COMPOUND": "COc1cc(-c2cc(C(=O)N3CCC(C(=O)NCc4c[nH]c5ncccc45)CC3)n[nH]2)c(Cl)cn1",
    "RESULT": "136 nM"
  },
  {
    "COMPOUND": "COc1cc(-c2cc(C(=O)N3CC[C@H](C(=O)NC4CCCn5cc(C(F)(F)F)nc54)CC34CC4)n[nH]2)c(F)cn1 (single isomer, unassigned) [Example 502-B]",
    "RESULT": "5.3 nM"
  },
  {
    "COMPOUND": "COc1cc(-c2cc(C(=O)N3CCC(C(=O)NCc4cccc(Cl)c4F)CC3)n[nH]2)c(Cl)cn1",
    "RESULT": "32.1 nM"
  },
  {
    "COMPOUND": "COc1cc(-c2cc(C(=O)N3CCC(C(=O)NC4CCN(c5ccc(F)cc5)C4)CC3)n[nH]2)c(Cl)cn1 (racemic)",
    "RESULT": "51 nM"
  },
  {
    "COMPOUND": "COc1cc(-c2cc(C(=O)N3CC[C@H](C(=O)NC4CCC(CO)(C(F)(F)F)CC4)CC34CC4)n[nH]2)c(F)cn1 (single isomer, unassigned)",
    "RESULT": "4.5 nM"
  },
  {
    "COMPOUND": "COc1cc(-c2cc(C(=O)N3[C@@H]4CC[C@H]3C[C@H](C(=O)N[C@H]3CC[C@](O)(C(F)(F)F)CC3)C4)n[nH]2)c(F)cn1",
    "RESULT": "1110 nM"
  },
  {
    "COMPOUND": "COc1cc(-c2cc(C(=O)N3CCC(C(=O)NC(C)c4ncc(F)cc4Cl)CC34CC4)n[nH]2)c(F)cn1 (mixture of isomers)",
    "RESULT": "20.2 nM"
  },
  {
    "COMPOUND": "COc1cc(-c2cc(C(=O)N3CC[C@H](C(=O)NCc4ccc5[nH]nc(F)c5c4)CC34CC4)n[nH]2)c(F)cn1 (single isomer, unassigned)",
    "RESULT": "4.4 nM"
  }
]

---

# AC50 listing for each entry below
target: His6-TEV-PPARγ-(234-505) (Homo sapiens, UniProt P37231); construct: The His6-TEV-PPARγ-(234-505) protein for assay was expressed and purified; TEV cleavage site (N); made in house; experiment: TR-FRET Assay to Measure Co-R Peptide Recruitment to PPARγ; assay type: biochemical; conditions: Co-R peptide (SMRT-ID2) recruitment; top final concentration 20 μM; read-out: TR-FRET i-Ag; AC50
READOUT TYPE: AC50

[
  {
    "COMPOUND": "COc1cc(-c2cc(C(=O)N3CC[C@@H](C(=O)N[C@H]4CC[C@@](O)(C(F)(F)F)CC4)CC34CC4)n[nH]2)c(Cl)cn1 (single isomer, unassigned)",
    "SYSTEM TESTED": "His6-TEV-PPARγ-(234-505) (Homo sapiens, UniProt P37231)",
    "READOUT TYPE": "AC50",
    "RESULT": "304 nM"
  },
  {
    "COMPOUND": "COc1cc(-c2cc(C(=O)N3CC[C@H](C(=O)NCc4nccn4C(F)(F)F)CC34CC4)[nH]n2)c(F)cn1",
    "SYSTEM TESTED": "His6-TEV-PPARγ-(234-505) (Homo sapiens, UniProt P37231)",
    "READOUT TYPE": "AC50",
    "RESULT": "4.3 nM"
  },
  {
    "COMPOUND": "COc1cc(-c2cc(C(=O)N3CCC(C(=O)NCc4c(F)ccc(F)c4F)CC3)n[nH]2)c(Cl)cn1",
    "SYSTEM TESTED": "His6-TEV-PPARγ-(234-505) (Homo sapiens, UniProt P37231)",
    "READOUT TYPE": "AC50",
    "RESULT": "12.8 nM"
  },
  {
    "COMPOUND": "COc1cc(-c2cc(C(=O)N3CCC(C(=O)NC(C)c4ccc5[nH]nc(C)c5c4)CC3)n[nH]2)c(F)cn1 (racemic)",
    "SYSTEM TESTED": "His6-TEV-PPARγ-(234-505) (Homo sapiens, UniProt P37231)",
    "READOUT TYPE": "AC50",
    "RESULT": "101 nM"
  },
  {
    "COMPOUND": "COc1cc(-c2cc(C(=O)N3CCC(C(=O)NCC4CC(OC)C4)CC3)n[nH]2)c(Cl)cn1 (mixture of isomers)",
    "SYSTEM TESTED": "His6-TEV-PPARγ-(234-505) (Homo sapiens, UniProt P37231)",
    "READOUT TYPE": "AC50",
    "RESULT": "688 nM"
  },
  {
    "COMPOUND": "COc1cc(-c2cc(C(=O)N3CCC(C(=O)NCc4ccc(F)cn4)CC3)n[nH]2)c(Cl)cn1",
    "SYSTEM TESTED": "His6-TEV-PPARγ-(234-505) (Homo sapiens, UniProt P37231)",
    "READOUT TYPE": "AC50",
    "RESULT": "644 nM"
  },
  {
    "COMPOUND": "COc1cc(-c2cc(C(=O)N3CCC(C(=O)Nc4c(F)ccc5ccnn45)CC34CC4)n[nH]2)c(F)cn1 (racemic)",
    "SYSTEM TESTED": "His6-TEV-PPARγ-(234-505) (Homo sapiens, UniProt P37231)",
    "READOUT TYPE": "AC50",
    "RESULT": "8.3 nM"
  }
]
